protocolDetails: qHTS of pediatric cancer cell lines to identify multiple opportunities for drug repurposing: Primary screen for OHS-50 cells (AID 1347103); note: nearly all actives have a fitted effect of over 40% in size
testConditions: OHS-50 osteosarcoma viability, CellTiter-Glo luminescence, 48 h; series mostly up to 57.3 µM
Records with an inconclusive call do not appear. The source made the active and inactive calls. Calls come from the whole dose curve; as a rule, active = well fitted cell-killing curve with a large enough effect; inconclusive = small, poorly fitted or top-dose-only effect; inactive = no such curve, though single readings can be large or run the other way.
Write down the outcome that applies. Available outcomes: active, inactive

Answered cases to consult:
## Task // param item: CC(C)(C)NCC(O)COc1cccc2c1C[C@H](O)[C@H](O)C2 (stereo partly drawn) ; yields the recorded call
## Result inactive

## Task In this assay, the call recorded for Cc1ccc(S(=O)(=O)NC(=O)NC2CCCC2)cc1 was what?
## Result inactive

## Task Dear colleague, could you share the recorded outcome for CNCCCCOc1ccccc1Cc1ccccc1 when you have a moment?
## Result active

## Task Just curious, what result did OCc1ccccn1 get here?
## Result inactive

## Task GET /call?item= O=[N+]([O-])c1ccc(/C=N\O)o1 returns the recorded outcome of this test.
## Result inactive

## Task Hi, do you know how Nc1ccc(C(=O)NCC(=O)O)cc1 came out in this test?
## Result inactive

## Task What did the test return for NS(=O)(=O)c1ccc(Cl)c(S(N)(=O)=O)c1 ?
## Result inactive

## Task Please indicate how the test categorized O=C(Nc1ncc([N+](=O)[O-])s1)c1cccs1 .
## Result active

Continuing:
## Task Hey, what did the test say about CCN(CC)CCNC(=O)c1cc(Br)c(N)cc1OC ?
## Result inactive

## Task Per the records of this test, what outcome belongs to Nc1nc(Cl)nc2c1ncn2[C@@H]1O[C@H](CO)[C@@H](O)[C@@H]1F ?
## Result active

* * *

protocolDetails: qHTS of pediatric cancer cell lines to identify multiple opportunities for drug repurposing: Primary screen for LAN-5 cells (AID 1347100)
testConditions: LAN-5 neuroblastoma viability, CellTiter-Glo luminescence, 48 h; series mostly up to 46 µM
Inconclusive results are not listed. Activity calls are given as the source filed them. The call rests on the fitted dose curve; in most records, active means well fitted cell-killing curve with a large enough effect; inconclusive means small, poorly fitted or top-dose-only effect; inactive means no such curve, though single readings can be large or run the other way.
Outcome (select one): true for active, false for inactive

Answered examples (6):
## Task Hi, sorry to bother you, what did the test record for OC(C#CCN1CCCC1)(c1ccccc1)c1ccccc1 ?
## Result false

## Task Check the results log: what was the call for C#C[C@]1(O)CC[C@H]2[C@@H]3CCc4cc(OC)ccc4[C@H]3CC[C@@]21C ?
## Result false

## Task What was the test verdict on CCCCCCCC/C=C\CCCCCCCCN ?
## Result false

## Task Recorded call for Cc1cc(NS(=O)(=O)c2ccc(N)cc2)nc(C)n1 ?
## Result false

## Task # fetch the recorded call for CCN(CC)CCNC(=O)c1cc(Br)c(N)cc1OC here
## Result false

## Task Short answer needed: outcome of this test for CCc1oc2ccccc2c1C(=O)c1cc(I)c(O)c(I)c1 ?
## Result false

Further cases:
## Task Identify the outcome logged in this assay for the compound shown: CN(Cc1ccc(C(C)(C)C)cc1)Cc1cccc2ccccc12
## Result false

## Task Which result was noted for this compound in the test: CCCCNc1ccc(C(=O)OCCOCCOCCOCCOCCOCCOCCOCCOCCOC)cc1
## Result false

## Task Which result was noted for this compound in the test: Cc1cc2c(OCC(CNC(C)(C)C)OC(=O)c3ccccc3)cccc2[nH]1 (stereo unspecified)
## Result false

## Task So what was the verdict on CC(=O)NC(=O)c1ccccc1O in this test?
## Result false

## Task Assay result, entry OC[C@H]1O[C@@H](Oc2ccc(O)cc2)[C@H](O)[C@@H](O)[C@@H]1O — outcome?
## Result false
